- Test system: NCI-H2009
- Assay Details: relative viability (nuclei count vs DMSO), 5 days (fraction); higher = more cells survive
- Condition: first compound 0.5 µM
The reader will find reported relative viability values listed item by item below.
// print number alone

INSERT INTO measurements (molecule, measured_property, observed_result) VALUES
  ('COc1cc2nccc(Oc3ccc(NC(=O)Nc4cc(C)on4)c(Cl)c3)c2cc1OC [Tivozanib] + Cc1cc(Nc2cc(N3CCN(C)CC3)nc(Sc3ccc(NC(=O)C4CC4)cc3)n2)n[nH]1 [Tozasertib] (partner 0.1 µM)', 'relative viability', 0.759),
  ('COc1cc2nccc(Oc3ccc(NC(=O)Nc4cc(C)on4)c(Cl)c3)c2cc1OC [Tivozanib] + O=C(CCCCCCC(=O)Nc1ccccc1)NO [Vorinostat] (partner 1 µM)', 'relative viability', 0.621);

Summary for this molecule, COc1cc2nccc(Oc3ccc(NC(=O)Nc4cc(C)on4)c(Cl)c3)c2cc1OC [Tivozanib] + Cc1nc(NC(=O)N2CCC[C@H]2C(N)=O)sc1-c1ccnc(C(C)(C)C(F)(F)F)c1 [Alpelisib] (partner 2 µM) : relative viability is 1.19

* * *

- Tested on: A-427
- Assay Details: relative viability (nuclei count vs DMSO), 5 days (fraction); higher = more cells survive
- Condition: first compound 0.002 µM
Measured Property: relative viability
// print number alone

Summary for this compound, CC(=O)O[C@@]12CO[C@@H]1C[C@H](O)[C@@]1(C)C(=O)[C@H](O)C3=C(C)[C@@H](OC(=O)[C@H](O)[C@@H](NC(=O)OC(C)(C)C)c4ccccc4)C[C@@](O)([C@@H](OC(=O)c4ccccc4)[C@H]21)C3(C)C [Docetaxel] + Cc1nc(NC(=O)N2CCC[C@H]2C(N)=O)sc1-c1ccnc(C(C)(C)C(F)(F)F)c1 [Alpelisib] (partner 2 µM) : relative viability is 0.974

* * *

- System: HCC-78
- Assay Details: relative viability (nuclei count vs DMSO), 5 days (fraction); higher = more cells survive
- Condition: first compound 0.8 µM
The reader will find reported relative viability values listed item by item below.
// print number alone

INSERT INTO assay_data (molecule, observed_result) VALUES
  ('Cc1cnc(-c2cnc(NCCNc3ccc(C#N)cn3)nc2-c2ccc(Cl)cc2Cl)[nH]1 + Cc1nc(Nc2ncc(C(=O)Nc3c(C)cccc3Cl)s2)cc(N2CCN(CCO)CC2)n1 [Dasatinib] (partner 0.075 µM)', 0.41);

Summary for this molecule, O=c1[nH]c2ccccc2n1C1CCN(CCCC(c2ccc(F)cc2)c2ccc(F)cc2)CC1 [Pimozide] + C[C@]1(O)C[C@@H](c2nc(-c3ccc4ccc(-c5ccccc5)nc4c3)c3c(N)nccn32)C1 [Linsitinib] (partner 1 µM) : relative viability is 0.549

* * *

- Tested on: NCI-H1395
- Assay Details: relative viability (nuclei count vs DMSO), 5 days (fraction); higher = more cells survive
- Condition: first compound 0.4 µM
The reader will find reported relative viability values listed item by item below.
// print number alone

In the examples that follow, each entry is paired with its recorded relative viability.
INSERT INTO results (compound, measured_property, observed_result) VALUES
  ('Cc1sc2c(c1C)C(c1ccc(Cl)cc1)=N[C@@H](CC(=O)OC(C)(C)C)c1nnc(C)n1-2 [JQ1] + CS(=O)(=O)N1CCN(Cc2cc3nc(-c4cccc5[nH]ncc45)nc(N4CCOCC4)c3s2)CC1 [Pictilisib] (partner 1 µM)', 'relative viability', 0.62),
  ('Cc1sc2c(c1C)C(c1ccc(Cl)cc1)=N[C@@H](CC(=O)OC(C)(C)C)c1nnc(C)n1-2 [JQ1] + Cc1nc(NC(=O)N2CCC[C@H]2C(N)=O)sc1-c1ccnc(C(C)(C)C(F)(F)F)c1 [Alpelisib] (partner 2 µM)', 'relative viability', 0.813),
  ('Cc1sc2c(c1C)C(c1ccc(Cl)cc1)=N[C@@H](CC(=O)OC(C)(C)C)c1nnc(C)n1-2 [JQ1] + COc1cc2c(Oc3ccc(NC(=O)C4(C(=O)Nc5ccc(F)cc5)CC4)cc3F)ccnc2cc1OCCCN1CCOCC1 [Foretinib] (partner 0.25 µM)', 'relative viability', 1);

Switching to the query record.
Summary for this compound, Cc1sc2c(c1C)C(c1ccc(Cl)cc1)=N[C@@H](CC(=O)OC(C)(C)C)c1nnc(C)n1-2 [JQ1] + Cc1nc(Nc2ncc(C(=O)Nc3c(C)cccc3Cl)s2)cc(N2CCN(CCO)CC2)n1 [Dasatinib] (partner 0.075 µM) : relative viability is 0.362

* * *

- Tested on: H3255
- Assay Details: relative viability (nuclei count vs DMSO), 5 days (fraction); higher = more cells survive
- Condition: first compound 50 µM
The reader will find reported relative viability values listed item by item below.
// print number alone

In the examples that follow, each entry is paired with its recorded relative viability.
INSERT INTO assay_data (compound, measured_property, observed_result) VALUES
  ('O=C(O)CCCCC(CCSCc1ccccc1)SCc1ccccc1 (configuration not stated) [CPI-613] + COc1cccc2cc(-c3nc([C@H]4CC[C@H](C(=O)O)CC4)n4ncnc(N)c34)[nH]c12 [OSI-027] (partner 0.5 µM)', 'relative viability', 0.612),
  ('O=C(O)CCCCC(CCSCc1ccccc1)SCc1ccccc1 (configuration not stated) [CPI-613] + CCNC(=O)c1noc(-c2cc(C(C)C)c(O)cc2O)c1-c1ccc(CN2CCOCC2)cc1 [Luminespib] (partner 0.01 µM)', 'relative viability', 0.879),
  ('O=C(O)CCCCC(CCSCc1ccccc1)SCc1ccccc1 (configuration not stated) [CPI-613] + CS(=O)(=O)N1CCN(Cc2cc3nc(-c4cccc5[nH]ncc45)nc(N4CCOCC4)c3s2)CC1 [Pictilisib] (partner 1 µM)', 'relative viability', 0.452),
  ('O=C(O)CCCCC(CCSCc1ccccc1)SCc1ccccc1 (configuration not stated) [CPI-613] + Cc1nc(Nc2ncc(C(=O)Nc3c(C)cccc3Cl)s2)cc(N2CCN(CCO)CC2)n1 [Dasatinib] (partner 0.075 µM)', 'relative viability', 0.346),
  ('O=C(O)CCCCC(CCSCc1ccccc1)SCc1ccccc1 (configuration not stated) [CPI-613] + Nc1ncn([C@H]2C[C@H](O)[C@@H](CO)O2)c(=O)n1 [Decitabine] (partner 2 µM)', 'relative viability', 0.665),
  ('O=C(O)CCCCC(CCSCc1ccccc1)SCc1ccccc1 (configuration not stated) [CPI-613] + Nc1nc2[nH]cc(CCc3ccc(C(=O)N[C@@H](CCC(=O)O)C(=O)O)cc3)c2c(=O)[nH]1 [Pemetrexed] (partner 0.2 µM)', 'relative viability', 0.543);

Summary for this compound, O=C(O)CCCCC(CCSCc1ccccc1)SCc1ccccc1 (configuration not stated) [CPI-613] + CS(=O)(=O)CCNCc1ccc(-c2ccc3ncnc(Nc4ccc(OCc5cccc(F)c5)c(Cl)c4)c3c2)o1 [Lapatinib] (partner 2 µM) : relative viability is 0.291

* * *

- Tested on: Calu-6
- Assay Details: relative viability (nuclei count vs DMSO), 5 days (fraction); higher = more cells survive
- Condition: first compound 0.253 µM
Measured Property: relative viability
// print number alone

In the examples that follow, each entry is paired with its recorded relative viability.
INSERT INTO assay_data (compound, observed_result) VALUES
  ('Cc1cnc(-c2cnc(NCCNc3ccc(C#N)cn3)nc2-c2ccc(Cl)cc2Cl)[nH]1 + C[C@@H](Oc1cc(-c2cnn(C3CCNCC3)c2)cnc1N)c1c(Cl)ccc(F)c1Cl [Crizotinib] (partner 1 µM)', 0.752),
  ('Cc1cnc(-c2cnc(NCCNc3ccc(C#N)cn3)nc2-c2ccc(Cl)cc2Cl)[nH]1 + CC1(C)CCC(c2ccc(Cl)cc2)=C(CN2CCN(c3ccc(C(=O)NS(=O)(=O)c4ccc(N[C@H](CCN5CCOCC5)CSc5ccccc5)c(S(=O)(=O)C(F)(F)F)c4)cc3)CC2)C1 [Navitoclax] (partner 0.5 µM)', 0.773),
  ('Cc1cnc(-c2cnc(NCCNc3ccc(C#N)cn3)nc2-c2ccc(Cl)cc2Cl)[nH]1 + CC(C)C[C@H](NC(=O)[C@H](Cc1ccccc1)NC(=O)c1cnccn1)B(O)O [Bortezomib] (partner 0.002 µM)', 0.996),
  ('Cc1cnc(-c2cnc(NCCNc3ccc(C#N)cn3)nc2-c2ccc(Cl)cc2Cl)[nH]1 + CS(=O)(=O)N1CCN(Cc2cc3nc(-c4cccc5[nH]ncc45)nc(N4CCOCC4)c3s2)CC1 [Pictilisib] (partner 1 µM)', 0.934);

Switching to the query record.
Summary for this compound, O=c1[nH]c2ccccc2n1C1CCN(CCCC(c2ccc(F)cc2)c2ccc(F)cc2)CC1 [Pimozide] + CS(=O)(=O)CCNCc1ccc(-c2ccc3ncnc(Nc4ccc(OCc5cccc(F)c5)c(Cl)c4)c3c2)o1 [Lapatinib] (partner 2 µM) : relative viability is 1.07

* * *

- System: NCI-H661
- Assay Details: relative viability (nuclei count vs DMSO), 5 days (fraction); higher = more cells survive
- Condition: first compound 0.04 µM
Measured Property: relative viability
// print number alone

INSERT INTO results (molecule, measured_property, observed_result) VALUES
  ('Cc1sc2c(c1C)C(c1ccc(Cl)cc1)=N[C@@H](CC(=O)OC(C)(C)C)c1nnc(C)n1-2 [JQ1] + CC(C)C[C@H](NC(=O)[C@H](Cc1ccccc1)NC(=O)c1cnccn1)B(O)O [Bortezomib] (partner 0.002 µM)', 'relative viability', 0.783),
  ('Cc1sc2c(c1C)C(c1ccc(Cl)cc1)=N[C@@H](CC(=O)OC(C)(C)C)c1nnc(C)n1-2 [JQ1] + CC(=O)c1c(C)c2cnc(Nc3ccc(N4CCNCC4)cn3)nc2n(C2CCCC2)c1=O [Palbociclib] (partner 0.5 µM)', 'relative viability', 0.406),
  ('Cc1sc2c(c1C)C(c1ccc(Cl)cc1)=N[C@@H](CC(=O)OC(C)(C)C)c1nnc(C)n1-2 [JQ1] + O=C(CCCCCCC(=O)Nc1ccccc1)NO [Vorinostat] (partner 1 µM)', 'relative viability', 0.766);

Switching to the query record.
Summary for this molecule, Cc1sc2c(c1C)C(c1ccc(Cl)cc1)=N[C@@H](CC(=O)OC(C)(C)C)c1nnc(C)n1-2 [JQ1] + Nc1nc2[nH]cc(CCc3ccc(C(=O)N[C@@H](CCC(=O)O)C(=O)O)cc3)c2c(=O)[nH]1 [Pemetrexed] (partner 0.2 µM) : relative viability is 0.914

Cited source: the supplement of paper PMC10307832
